target: LTA4 hydrolase (Cavia porcellus, UniProt P19602)
Sequence (P19602 whole entry): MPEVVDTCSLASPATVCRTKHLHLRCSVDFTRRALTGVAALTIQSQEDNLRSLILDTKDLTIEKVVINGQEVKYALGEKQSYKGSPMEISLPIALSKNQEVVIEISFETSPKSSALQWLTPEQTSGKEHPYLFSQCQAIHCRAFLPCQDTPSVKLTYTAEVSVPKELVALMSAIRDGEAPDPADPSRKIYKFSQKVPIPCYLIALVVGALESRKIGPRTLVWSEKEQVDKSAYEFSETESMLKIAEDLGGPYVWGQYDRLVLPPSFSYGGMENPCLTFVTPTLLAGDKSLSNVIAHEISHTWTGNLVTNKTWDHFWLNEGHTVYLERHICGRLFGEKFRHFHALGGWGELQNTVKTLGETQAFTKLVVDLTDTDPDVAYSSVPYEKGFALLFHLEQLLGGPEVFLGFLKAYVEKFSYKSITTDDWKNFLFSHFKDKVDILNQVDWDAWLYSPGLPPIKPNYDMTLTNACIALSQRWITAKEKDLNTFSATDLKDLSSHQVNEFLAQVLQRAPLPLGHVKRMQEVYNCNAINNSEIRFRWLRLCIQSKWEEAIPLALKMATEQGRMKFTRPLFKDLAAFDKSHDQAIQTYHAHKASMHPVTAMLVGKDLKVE
pIC50: −log10 of the molar value.
Use 6 as the dividing line for pIC50, with the line itself on the MET side and lower values as NOT MET.

{"compound": "C[C@H](S)C(=O)N[C@@H](CSCc1ccc(N(C)C)cc1)C(=O)O [Compound No. 3-19]", "assignedLabel": "NOT MET"}
{"compound": "CCCC(CS)C(=O)N[C@@H](CSCc1ccc(N(C)C)cc1)C(=O)O (mixture of isomers) [Compound No. 3-23]", "assignedLabel": "MET"}
{"compound": "CN(C)c1ccc(CSC[C@H](NC(=O)C(CS)CCc2ccccc2)C(=O)O)cc1 (single isomer, unassigned) [Compound No. 3-26]", "assignedLabel": "MET"}
